Experimental protocol: mitochondrial membrane potential change in A549 cells, profiling panel, cell-based, JC-1 fluorescence, basal, 24 h, 100 nL (AID 1138);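 further: A549 lung adenocarcinoma cells under basal conditions with no added stimulus; test concentration not given here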
Assay setup: higher = more signal
Metric: z-score
Give bare numbers.

Some entries whose results are on file:
compound=CCCC=C(CCC)[C@@H](NS(=O)(=O)c1cccc(C(F)(F)F)c1)c1ccc(C(=O)OC)cc1 reported_value=0.622
compound="C=CCC(OC(C)=O)[C@@H]1[C@@H](N(Cc2cc3ccccc3o2)C(=O)c2ccc(C)cc2)c2cc(OCCCO)ccc2N1C(=O)c1ccc2ccccc2n1 (stereo partly specified)" reported_value=1.57
compound=C=CC[C@@]1(C(=O)N2CCOCC2)N=C(c2ccc(OCCCO)cc2)O[C@@H]1c1ccccc1 reported_value=1.89
compound=CO[C@H]1COC(=O)CC=C[C@H](C)[C@@H](OC)COC(=O)[C@H](Cc2ccccc2)NC(=O)CC=C[C@@H]1C reported_value=1.39
compound=Cc1ccc(S[C@]2(C(=O)O)CC(=O)N(Cc3ccccc3)[C@@H]2c2ccc(CO)cc2)cc1 reported_value=1.31

Look at each compound and report its z-score.
1. COC(=O)[C@@]1(Cc2ccccc2N=[N+]=[N-])N=C(c2ccc(OCCCO)cc2)O[C@H]1c1ccccc1CN=[N+]=[N-]
2. CO[C@H]1COC(=O)[C@H](C)COC(=O)[C@H](Cc2ccccc2)NC(=O)CC=C[C@H]1C
3. CCC(=O)[C@]12O[C@@]3([C@@H]4C(=O)OCC[C@@H]41)N(Cc1ccccc1)C(C)=C(C(=O)OC)[C@@H](c1ccccc1)N3C2=O
4. CCCNC(=O)[C@@H]1c2ccccc2C(=O)N(C2CCCCC2)[C@H]1c1ccc(CO)cc1
5. CCCCCCc1nc(-c2cc(C)c(OC)c(C)c2)cc2c1[Si](C(C)C)(C(C)C)O[C@H]2c1ccccc1
6. CC(C)[C@H]1NC(=O)[C@@]23C(=O)N[C@@H](Cc4ccccc4)C2[C@H](C)[C@@]2(C)O[C@H]2C3/C=C/C/C=C\CNC(=O)[C@H](C)NC1=O (stereo partly specified)
7. CCOC(=O)C[C@H]1[C@H](OC(=O)c2cc3ccccc3oc2=O)[C@@H](NC(=O)C2CCCCC2)c2cc(OCCCO)ccc2N1C(=O)c1ccc2ccccc2n1
8. C=C[C@H](OC)[C@@H](OC(=O)Nc1ccc(SC)cc1)c1ccc(OC)c(O)c1

Resp:
1: 1.02; 2: 1.71; 3: 1.27; 4: 0.888; 5: -0.705; 6: -0.134; 7: 0.539; 8: 0.52

----------
Experimental protocol: splicing luciferase reporter signal modulators, primary screen, spliceosome inhibition project, cell-based, HEK293, splice +/- reporter (AID 1101);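 further: HEK293 cells carrying a splicing-competent luciferase reporter gene; test concentration not given here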
Assay setup: luminescence, 24 h, higher = more signal, called active from +8 up or from −8 down
Record form. Attribute: z-score. Fill in for each entry.
One number for each entry.

Some entries whose results are on file:
molecule=NC(=O)[C@H]1[C@@H]2C(=O)O[C@@H](c3ccccc3)[C@@H](c3ccccc3)N2[C@@H](c2ccc(O)cc2)[C@]12C(=O)Nc1ccc(C#CCCO)cc12 reported_value=-0.205
molecule=O=C(CS)NCCCCCNC(=O)[C@H]1C[C@H]2C(=O)N3CCC[C@H]3C(=O)N2[C@H]1c1ccc(O)cc1 reported_value=-1.45
molecule=C=CC[C@]1(C(N)=O)N=C(c2ccc(OCCCO)cc2)O[C@H]1c1ccccc1CN=[N+]=[N-] reported_value=-0.783

Req: Consider the molecule O=C1C2C=CC(C(O)c3ccccc3)N(n3cnnc3)C2C(=O)N1Cc1ccccc1 (centres undefined) and give its recorded z-score.
Resp: -0.524
